Data origin: the supplement of paper PMC10065799

Target system: Jak2 (UniProt O60674)
Sequence (O60674 whole entry, looked up): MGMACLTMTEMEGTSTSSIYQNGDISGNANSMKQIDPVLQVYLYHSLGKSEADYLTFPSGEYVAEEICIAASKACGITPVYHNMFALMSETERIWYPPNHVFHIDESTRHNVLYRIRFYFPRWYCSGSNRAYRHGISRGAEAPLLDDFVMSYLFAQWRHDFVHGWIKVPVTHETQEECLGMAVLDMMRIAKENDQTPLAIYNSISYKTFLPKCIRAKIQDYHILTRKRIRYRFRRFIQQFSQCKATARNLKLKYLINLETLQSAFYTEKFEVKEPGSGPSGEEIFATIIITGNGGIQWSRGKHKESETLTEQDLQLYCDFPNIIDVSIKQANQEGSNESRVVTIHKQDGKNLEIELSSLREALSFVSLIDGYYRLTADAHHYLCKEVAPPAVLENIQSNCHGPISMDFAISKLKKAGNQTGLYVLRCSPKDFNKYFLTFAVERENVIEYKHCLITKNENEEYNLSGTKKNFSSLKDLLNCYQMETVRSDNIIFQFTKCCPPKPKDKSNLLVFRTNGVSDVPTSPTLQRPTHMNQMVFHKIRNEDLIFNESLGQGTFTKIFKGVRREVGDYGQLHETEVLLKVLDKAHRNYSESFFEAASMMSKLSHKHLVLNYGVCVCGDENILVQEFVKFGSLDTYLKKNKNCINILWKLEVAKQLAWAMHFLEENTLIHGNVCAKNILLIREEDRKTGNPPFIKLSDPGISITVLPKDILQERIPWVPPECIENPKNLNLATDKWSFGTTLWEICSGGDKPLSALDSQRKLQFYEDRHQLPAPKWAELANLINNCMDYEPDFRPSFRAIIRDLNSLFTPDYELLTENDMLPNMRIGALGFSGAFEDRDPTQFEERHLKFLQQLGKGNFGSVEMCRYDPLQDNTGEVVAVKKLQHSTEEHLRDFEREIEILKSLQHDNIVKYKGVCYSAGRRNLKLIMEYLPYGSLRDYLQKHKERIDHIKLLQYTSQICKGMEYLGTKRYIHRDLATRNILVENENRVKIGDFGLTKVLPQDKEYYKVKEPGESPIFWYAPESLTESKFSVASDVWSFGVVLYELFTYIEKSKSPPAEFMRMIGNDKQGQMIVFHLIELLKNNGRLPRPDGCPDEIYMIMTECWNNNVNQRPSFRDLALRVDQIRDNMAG
Protocol details: phosphorylation enrichment, bacterial display (enrichment ratio); higher = better substrate or ligand; peptides without Tyr show the background;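 also: 11-residue human phosphosite peptides and single-mutation variants displayed on the E. coli surface, counted by deep sequencing, each peptide's frequency after selection divided by its frequency in the unselected input library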;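 also: frequency after pTyr selection over input frequency; kinase dosed for 20-30% of maximal phosphorylation in three min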
Observation type: phosphorylation enrichment
I only need the number, thanks.

- PLLEYYRDIFT [CDAN1_Y713]: 4.74

Ask: Please look at WRVISYHVVVW [ATP13A2_Y50_G49S] and tell me its recorded phosphorylation enrichment on Jak2 (UniProt O60674).
Result: 1.26

Ask: Give phosphorylation enrichment for ALAAPYVLFPS [CEFIP_Y1332_G1337S_YF] tested on Jak2 (UniProt O60674).
Result: 1.63

* * *

Target system: Hck (UniProt P08631)
Sequence (P08631 whole entry, looked up): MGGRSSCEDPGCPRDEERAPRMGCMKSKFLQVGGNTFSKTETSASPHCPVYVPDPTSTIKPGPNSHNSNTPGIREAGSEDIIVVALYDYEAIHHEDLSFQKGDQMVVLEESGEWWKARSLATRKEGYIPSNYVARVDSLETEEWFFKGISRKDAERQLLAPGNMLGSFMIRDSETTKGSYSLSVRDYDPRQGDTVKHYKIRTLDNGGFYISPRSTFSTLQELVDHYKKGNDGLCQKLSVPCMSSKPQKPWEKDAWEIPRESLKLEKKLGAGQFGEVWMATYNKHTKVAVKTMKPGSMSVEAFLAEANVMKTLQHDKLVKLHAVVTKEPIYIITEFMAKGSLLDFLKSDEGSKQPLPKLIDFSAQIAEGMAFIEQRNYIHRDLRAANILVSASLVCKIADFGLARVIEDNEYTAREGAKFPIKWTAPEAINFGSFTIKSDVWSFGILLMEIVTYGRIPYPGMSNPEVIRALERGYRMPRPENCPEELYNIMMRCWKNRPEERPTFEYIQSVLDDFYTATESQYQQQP
Protocol details: phosphorylation enrichment, bacterial display (enrichment ratio); higher = better substrate or ligand; peptides without Tyr show the background
Each entry below carries its recorded phosphorylation enrichment.
Answer with the value's number alone.

Use the examples below as a reference point.
- ECKLRYSRKEG [PTPN11_Y263_L262R]: 0.503
- FQLENCCNGGG [INS_Y108_Y108C_YF]: 0.504
- EEQKKYFNAVK [SCN5A_Y1494_M1498V_YF]: 0.483
- GRTNIYNNKKD [SLC26A3_Y520_K521N]: 0.365
- VSKGGYFSVNL [C3orf33_Y164]: 0.483

Ask: Quote Hck (UniProt P08631) phosphorylation enrichment for entry KSEFAYEIFDK [MYOM2_Y1024_L1022F] .
Result: 0.561

Ask: Output reported phosphorylation enrichment of the sequence LLREWYMIISR [HUWE1_Y4066] on Hck (UniProt P08631).
Result: 0.441

Ask: // output phosphorylation enrichment; input QADVIYVNTQL [MERTK_Y872] ; system Hck (UniProt P08631)
Result: 2.19

Ask: Give the observed phosphorylation enrichment of CERFSYFGMKA [SLC15A2_Y60_YF] for Hck (UniProt P08631).
Result: 0.557

Ask: Lab note: record phosphorylation enrichment of ISSLCYELLEE [TRPC6_Y896_R895C] tested on Hck (UniProt P08631).
Result: 0.747

Ask: Identify measured phosphorylation enrichment obtained with Hck (UniProt P08631) for GIFEDYVEGLR [MYL6_Y89_T85I_YF] .
Result: 0.484

Ask: # return phosphorylation enrichment for QAEELYFGKMG [YES1_Y159_W158L] , test system: Hck (UniProt P08631)
Result: 5.82

Ask: Report measured phosphorylation enrichment on Hck (UniProt P08631); entry: EIRTQYEVMAS [GFAP_Y242_A244V]
Result: 0.49

Ask: Specify the recorded phosphorylation enrichment for ILGRTYFVNHE [NEDD4_Y627_YF] , system: Hck (UniProt P08631).
Result: 0.379

Ask: Give phosphorylation enrichment only, for TGQEEYSAMRD [KRAS_Y64_A59T] , using Hck (UniProt P08631) data.
Result: 0.563
